B1: IQUB (parent)
chain: CRNCINLQNEAQKRESFLKYKCLL

variants of: B1; test: protein stability index of a GFP-peptide fusion (GPS, HEK-293T) (PSI 1-6); higher = more stable; conditions: c terminus: a fixed tail appended;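 note: lentivirally expressed fusions sorted by FACS into six bins by GFP to DsRed ratio, PSI derived from sequencing read proportions per bin multiplied by bin number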
Reported protein stability index values are given for each entry in this list.

{"sequence.change": "F17P", "protein stability index": 2.33}
{"sequence.change": "L18Y", "protein stability index": 1.38}
{"sequence.change": "L18G", "protein stability index": 2.9}
{"sequence.change": "L24W", "protein stability index": 1.46}
{"sequence.change": "C4E", "protein stability index": 1.41}
{"sequence.change": "F17Y", "protein stability index": 1.59}
{"sequence.change": "K19N", "protein stability index": 1.63}
{"sequence.change": "E10C", "protein stability index": 1.71}
{"sequence.change": "C22Y", "protein stability index": 1.84}
{"sequence.change": "E15P", "protein stability index": 2.05}
{"sequence.change": "C4G", "protein stability index": 1.85}
{"sequence.change": "R14N", "protein stability index": 2.26}
{"sequence.change": "L7Q", "protein stability index": 1.75}
{"sequence.change": "C4P", "protein stability index": 2}
{"sequence.change": "K19P", "protein stability index": 1.46}
{"sequence.change": "Q12C", "protein stability index": 1.81}
{"sequence.change": "L24F", "protein stability index": 1.82}
{"sequence.change": "R14G", "protein stability index": 1.67}
{"sequence.change": "E15Q", "protein stability index": 2.01}
{"sequence.change": "Q12M", "protein stability index": 1.5}
{"sequence.change": "L7I", "protein stability index": 1.79}
{"sequence.change": "R2S", "protein stability index": 1.86}
{"sequence.change": "N9K", "protein stability index": 1.98}
{"sequence.change": "L24E", "protein stability index": 1.65}
{"sequence.change": "N3P", "protein stability index": 1.92}
{"sequence.change": "N3W", "protein stability index": 1.68}
{"sequence.change": "E15G", "protein stability index": 2.37}
{"sequence.change": "C1W", "protein stability index": 2.08}
{"sequence.change": "S16N", "protein stability index": 1.84}
{"sequence.change": "E15D", "protein stability index": 2.13}
{"sequence.change": "E15M", "protein stability index": 3.62}
{"sequence.change": "Y20W", "protein stability index": 2.46}
{"sequence.change": "Q8K", "protein stability index": 1.38}
{"sequence.change": "A11H", "protein stability index": 1.66}
{"sequence.change": "N6D", "protein stability index": 1.47}
{"sequence.change": "F17T", "protein stability index": 2.74}
{"sequence.change": "K21V", "protein stability index": 3.66}
{"sequence.change": "N9E", "protein stability index": 1.42}
{"sequence.change": "N9T", "protein stability index": 1.33}
{"sequence.change": "N6L", "protein stability index": 2.27}
{"sequence.change": "N6M", "protein stability index": 1.46}
{"sequence.change": "A11Y", "protein stability index": 1.69}
{"sequence.change": "C22D", "protein stability index": 2.46}
{"sequence.change": "L23T", "protein stability index": 1.97}
{"sequence.change": "Y20E", "protein stability index": 2.17}
{"sequence.change": "C22I", "protein stability index": 2.13}
{"sequence.change": "E15A", "protein stability index": 2.85}
{"sequence.change": "K21M", "protein stability index": 1.76}
{"sequence.change": "Q12S", "protein stability index": 1.31}
{"sequence.change": "R2V", "protein stability index": 1.41}
{"sequence.change": "N3T", "protein stability index": 3.29}
{"sequence.change": "E10K", "protein stability index": 2.09}
{"sequence.change": "N9S", "protein stability index": 1.95}
{"sequence.change": "C1D", "protein stability index": 2.28}
{"sequence.change": "C4I", "protein stability index": 2.28}
{"sequence.change": "L24Q", "protein stability index": 1.74}
{"sequence.change": "C22S", "protein stability index": 1.65}
{"sequence.change": "K19A", "protein stability index": 1.46}
{"sequence.change": "N6K", "protein stability index": 1.76}
{"sequence.change": "I5V", "protein stability index": 1.61}
{"sequence.change": "N3Y", "protein stability index": 1.76}
{"sequence.change": "I5Q", "protein stability index": 1.97}
{"sequence.change": "C22W", "protein stability index": 2.01}
{"sequence.change": "N3M", "protein stability index": 1.08}
{"sequence.change": "L23P", "protein stability index": 2.69}
{"sequence.change": "L23D", "protein stability index": 2.7}
{"sequence.change": "L18S", "protein stability index": 1.39}
{"sequence.change": "Y20G", "protein stability index": 3.06}
{"sequence.change": "E10L", "protein stability index": 1.65}
{"sequence.change": "R2G", "protein stability index": 1.28}
{"sequence.change": "L24H", "protein stability index": 2.19}
{"sequence.change": "Q12I", "protein stability index": 2.58}
{"sequence.change": "F17N", "protein stability index": 2.22}
{"sequence.change": "K13W", "protein stability index": 2.06}
{"sequence.change": "S16I", "protein stability index": 1.59}
{"sequence.change": "I5L", "protein stability index": 2.16}
{"sequence.change": "R14K", "protein stability index": 2.02}
{"sequence.change": "N6G", "protein stability index": 1.91}
{"sequence.change": "K13R", "protein stability index": 1.74}
{"sequence.change": "C4K", "protein stability index": 2.15}
{"sequence.change": "Q8N", "protein stability index": 1.87}
{"sequence.change": "R14P", "protein stability index": 2.35}
{"sequence.change": "C22P", "protein stability index": 2.25}
{"sequence.change": "C4N", "protein stability index": 1.93}
{"sequence.change": "C1F", "protein stability index": 1.5}
{"sequence.change": "C4T", "protein stability index": 1.69}
{"sequence.change": "E15T", "protein stability index": 2.24}
{"sequence.change": "R2H", "protein stability index": 2.56}
{"sequence.change": "C22T", "protein stability index": 1.41}
{"sequence.change": "L7H", "protein stability index": 1.55}
{"sequence.change": "I5P", "protein stability index": 2.04}
